# tested.on: lysine-specific permease (LysP) (Pseudomonas aeruginosa)
# assay.comment: microscale thermophoresis; inhibition of [3H]L-lysine transport in LysP proteoliposomes
# Type: binding
# Parameters: purified GFP-free LysP in LMNG
test.readout: Kd (µM)
State the answer as a number, implicitly in µM.

Entry NCCSC[C@H](N)C(=O)O [L-4-thialysine, S-(2-aminoethyl)-L-cysteine] needs its Kd filled in; supply it.
31

###

# tested.on: lysine-specific permease (LysP) (Pseudomonas aeruginosa)
# assay.comment: microscale thermophoresis
# Type: binding
# Set-up: purified GFP-free LysP in LMNG
test.readout: Kd (µM)
State the answer as a number, implicitly in µM.

Entry NCCCC[C@@H](N)C(=O)O needs its Kd filled in; supply it.
151
